As shown below, each of these compounds has a reported melting point value.

> print(dat)
                                   compound   readout.name         result
1  O=C(/C=C/c1ccc(O)c(O)c1)N1CCN(S(=O)(=O)c2cccc3cnccc23)CC1 [Compound 1a]  melting point  161 to 162 °C
2  COc1cc(CCC(=O)N2CCN(S(=O)(=O)c3cccc4cnccc34)CC2)ccc1O [Compound 1g]  melting point  156 to 157 °C
3  COc1cc(/C=C/C(=O)N2CCN(S(=O)(=O)c3cccc4cnccc34)CC2)ccc1O [Compound 1e]  melting point       > 230 °C

Moving on to another compound below.
Query: Please report melting point for the following compound: O=C(CCc1ccc(O)c(O)c1)N1CCN(S(=O)(=O)c2cccc3cnccc23)CC1 [Compound 1c]
Reply: 158 to 159 °C

Reference for the values: paper PMC9132363
